Field: log10 of Ki. System: Complement C1s subcomponent (Homo sapiens, UniProt P09871). Provenance: assorted publications.
measured quantity: log10 of Ki (log10 of the value in nM)

1) CSc1sc(C(=N)N)cc1S(=O)(=O)c1cccc(-c2ccccc2)c1 :: 2.41
2) CSc1sc(C(=N)N)cc1S(=O)(=O)c1cccc(-c2c(C)cccc2NC(=O)NCCc2nn[nH]n2)c1 :: 1.81
3) CSc1sc(C(=N)N)cc1S(=O)(=O)c1cccc(-c2cccc(C)n2)c1 :: 1.60
4) CSc1sc(C(=N)N)cc1S(=O)(=O)c1cccc(-c2c(C)cccc2NC(=O)CCCCC(=O)O)c1 :: 1.62
5) CSc1sc(C(=N)N)cc1S(=O)(=O)Cc1ccccc1 :: 3.30
6) CSc1sc(C(=N)N)cc1-c1nc(-c2ccc([N+](=O)[O-])cc2)cs1 :: 3.00
7) CCc1sc(C(=N)N)cc1-c1nc(-c2ccccc2)cs1 :: 3.48
8) CSc1sc(C(=N)N)cc1S(=O)(=O)c1cccc(-c2c(C)cccc2N)c1 :: 1.30
9) CCCc1nn(C)cc1-c1csc(-c2cc(C(=N)N)sc2SC)n1 :: 2.28
10) CSc1sc(C(=N)N)cc1-c1nc(-c2ccc(Cl)c([N+](=O)[O-])c2)cs1 :: 2.93
11) CSc1sc(C(=N)N)cc1S(=O)(=O)c1nccn1C :: 3.27
12) CSc1sc(C(=N)N)cc1-c1nc(-c2ccc(Cl)cc2Cl)cs1 :: 3.48
13) CSc1sc(C(=N)N)cc1S(=O)(=O)c1cc(Br)c2c(c1)ncn2CC=C(C)C :: 1.70
14) COc1ccccc1-c1csc(-c2cc(C(=N)N)sc2SC)n1 :: 2.93
15) CSc1sc(C(=N)N)cc1S(=O)(=O)c1cc(Br)c2ncn(Cc3cc([N+](=O)[O-])ccc3F)c2c1 :: 2.23
16) CSc1sc(C(=N)N)cc1-c1nc(-c2cnn(-c3ccccc3)c2OCCC(C)C)cs1 :: 3.18
17) CCCc1c(-c2csc(-c3cc(C(=N)N)sc3SC)n2)cnn1-c1ccccn1 :: 1.85
18) CSc1sc(C(=N)N)cc1-c1nc(-c2ccccc2)cs1 :: 2.75
19) CSc1sc(C(=N)N)cc1S(=O)(=O)c1cccc(-c2cccc(O)c2)c1 :: 2.18
20) CSc1sc(C(=N)N)cc1S(=O)(=O)c1cc(Br)c2c(c1)ncn2Cc1cc([N+](=O)[O-])ccc1F :: 1.48
21) CSc1sc(C(=N)N)cc1-c1nc(-c2csc3ccccc23)cs1 :: 2.65
22) CSc1sc(C(=N)N)cc1S(=O)(=O)c1cccc(-c2ccccc2CO)c1 :: 2.08
23) CSc1sc(C(=N)N)cc1S(=O)(=O)c1cc(Br)c2c(c1)ncn2Cc1c(F)cccc1F :: 1.60
24) CSc1sc(C(=N)N)cc1S(=O)(=O)c1ccoc1C :: 3.25
25) CSc1sc(C(=N)N)cc1S(=O)(=O)c1cccc(-c2c(C)cccc2NC(=O)NCCCCCC(=O)O)c1 :: 1.34
26) CSc1sc(C(=N)N)cc1S(=O)(=O)c1cc(Br)c2c(c1)ncn2-c1ccccc1 :: 2.49
27) CSc1sc(C(=N)N)cc1S(=O)(=O)c1cccc(-c2c(C)cccc2CO)c1 :: 1.70
28) CSc1sc(C(=N)N)cc1S(=O)(=O)c1cccc(Br)c1 :: 2.56
29) CSc1sc(C(=N)N)cc1-c1nc(-c2ccc(C)cc2)cs1 :: 2.62
30) CSc1sc(C(=N)N)cc1S(=O)(=O)c1cccc(-c2ccccc2O)c1 :: 2.66
31) CSc1sc(C(=N)N)cc1-c1nc(Cc2ccccc2)cs1 :: 3.03
32) CSc1sc(C(=N)N)cc1S(=O)(=O)c1cc(Cl)c2c(c1)ncn2Cc1c(F)cccc1F :: 2.00
33) CSc1sc(C(=N)N)cc1S(=O)(=O)c1ccccc1 :: 2.88
34) CSc1sc(C(=N)N)cc1-c1nc(-c2cccs2)cs1 :: 2.85
35) COc1ccccc1-c1cccc(S(=O)(=O)c2cc(C(=N)N)sc2SC)c1 :: 2.79
36) C=CCn1cnc2c(Br)cc(S(=O)(=O)c3cc(C(=N)N)sc3SC)cc21 :: 2.32
37) CSc1sc(C(=N)N)cc1S(=O)(=O)c1cc(Br)c2ncn(Cc3c(Cl)cccc3Cl)c2c1 :: 2.20
38) CSc1sc(C(=N)N)cc1S(=O)(=O)c1ccc2c(c1)ncn2Cc1ccccc1 :: 2.60
39) CSc1sc(C(=N)N)cc1S(=O)(=O)c1cc(Br)c2c(c1)ncn2Cc1ccccc1 :: 1.48
